System: BDF1 mice, P388 leukemia ip, median survival T/C
protocol text: NCI In Vivo Anticancer Drug Screen. Data for tumor model P388 Leukemia (intraperitoneal) in B6D2F1 (BDF1) mice
applied conditions: endpoint: median survival time; dose: 50.0 mg/kg/injection; schedule: Q04DX003 (ip); vehicle: water; higher = longer survival
Inconclusive results and toxic doses are left out.
value type: T/C

> print(dat)
                                    compound                                       tgt  value.type            result
 1               CCOC(=O)CNCc1ccc(Cl)c(Cl)c1  BDF1 mice, P388 leukemia ip, median survival T/C         T/C  111 % of control
 2  COc1cc2c(cc1OC)C(=O)C(c1ccc3c(c1)OCO3)CC2 (stereo not given)  BDF1 mice, P388 leukemia ip, median survival T/C         T/C  100 % of control
 3                    CC(=O)n1ncc2ccc(N)cc21  BDF1 mice, P388 leukemia ip, median survival T/C         T/C  103 % of control
 4  CN=C(N)Nc1ccc(C(=O)Oc2ccc([N+](=O)[O-])cc2)cc1  BDF1 mice, P388 leukemia ip, median survival T/C         T/C  122 % of control
 5  COc1ccc(C(CC(C)=O)c2c(O)c3ccccc3oc2=O)cc1OC (stereo not given)  BDF1 mice, P388 leukemia ip, median survival T/C         T/C  100 % of control
 6         CCOC(=O)C(I)CC (stereo not given)  BDF1 mice, P388 leukemia ip, median survival T/C         T/C  101 % of control
 7                 c1ccc(Cn2ccnc2C2OCCO2)cc1  BDF1 mice, P388 leukemia ip, median survival T/C         T/C  107 % of control
 8                     CC(=O)N/N=C(/C)C(=O)O  BDF1 mice, P388 leukemia ip, median survival T/C         T/C  100 % of control
 9  COC(=O)C(N)CSCSCc1ccccc1 (stereo not given)  BDF1 mice, P388 leukemia ip, median survival T/C         T/C  100 % of control
10                    N=C(N)c1ccc(C(=N)N)cc1  BDF1 mice, P388 leukemia ip, median survival T/C         T/C   95 % of control

----------
Test system: BDF1 mice, P388 leukemia ip, median survival T/C
protocol text: NCI In Vivo Anticancer Drug Screen. Data for tumor model P388 Leukemia (intraperitoneal) in B6D2F1 (BDF1) mice
applied conditions: endpoint: median survival time; dose: 150.0 mg/kg/injection; schedule: Q04DX003 (ip); vehicle: saline; higher = longer survival
Toxic doses and inconclusive results are not listed.
value type: T/C

> print(dat)
                                   compound  value.type            result
1        C1CNC2NCCNC2N1 (centres undefined)         T/C  100 % of control
2  CC1CN1C(=O)c1cc(C(=O)N2CC2C)cc(C(=O)N2CC2C)c1 (centres undefined)         T/C   86 % of control
3            CCCCCCCCCCOP(N)(=O)OCCCCCCCCCC         T/C  110 % of control
4  COc1cccc2c1C13CC(C)CC(C2)C1CCC(=O)N3 (centres undefined)         T/C  105 % of control

----------
Tested on: BDF1 mice, P388 leukemia ip, median survival T/C
protocol text: NCI In Vivo Anticancer Drug Screen. Data for tumor model P388 Leukemia (intraperitoneal) in B6D2F1 (BDF1) mice
applied conditions: endpoint: median survival time; dose: 25.0 mg/kg/injection; schedule: Q04DX003 (ip); vehicle: Klucel (hydroxypropylcellulose) (HPC)
Inconclusive results and toxic doses are left out. How the source made its calls: active means survival T/C of 150% or more; inactive means T/C below 125% in these data.
Classes used: label 1 for active, label 0 for inactive

> print(dat)
                                   compound  answer.label
1  NC(CC(=O)CCl)C(=O)O (configuration not stated)       label 1
2     C#CC[As+](c1ccccc1)(c1ccccc1)c1ccccc1       label 0
3     O=C(/C=C(\CN1CCCCC1)c1ccccc1)c1ccccc1       label 0
4                                 C#CC(N)=O       label 0
5  O=NN(CCCl)C(=O)N[C@@H]1CCCC[C@H]1NC(=O)N(CCCl)N=O       label 1
6  COc1ccc(C(C#N)N2CCCCC2)cc1 (configuration not stated)       label 0
7                         CC(=N/O)/C(C)=N\O       label 0

----------
System: BDF1 mice, P388 leukemia ip, median survival T/C
protocol text: NCI In Vivo Anticancer Drug Screen. Data for tumor model P388 Leukemia (intraperitoneal) in B6D2F1 (BDF1) mice
applied conditions: endpoint: median survival time; dose: 1.0 mg/kg/injection; schedule: Q01DX009 (ip); vehicle: saline
Method: The antitumor activity of compounds was measured in mice bearing transplantable tumors. Survival or tumor size were measured and the results are expressed as the measurement made in the treated group (T) divided by the measurement made in the vehicle treated control group (C). The tumor model used in this assay is P388 Leukemia (intraperitoneal) in B6D2F1 (BDF1) mice
Toxic doses and inconclusive results are not listed. The calls were made as follows: active = survival T/C of 150% or more; inactive = T/C below 125% in these data.
Classes used: 1 for active, 0 for inactive

molecule	answer label
CO[C@H]1C[C@H](O[C@H]2CC[C@]3(C=O)[C@H]4CC[C@]5(C)[C@@H](C6=CC(=O)OC6)CC[C@]5(O)[C@@H]4CC[C@]3(O)C2)O[C@H](C)[C@H]1O[C@@H]1O[C@H](CO)[C@@H](O)[C@H](O)[C@H]1O	0
COc1ccccc1Cc1c(OC)cc(OC)c(C(=O)CCc2ccccc2)c1O	0
CCCCCC[C@@H](O)[C@@H]1C2=C(C[C@H]([C@H](O)[C@@H]3CC=CC(=O)O3)CC3=C(C(=O)OC3=O)[C@@H]1O)C(=O)OC2=O	0
COc1ccc(Nc2ccnc3cc(Cl)ccc23)cc1CN(CCCl)CCCl	1
COc1ccc2nc3cc(Cl)ccc3c(NC(C)CCCN(CCCl)CCCl)c2c1 (stereo not given)	0

----------
System: BDF1 mice, P388 leukemia ip, median survival T/C
protocol text: NCI In Vivo Anticancer Drug Screen. Data for tumor model P388 Leukemia (intraperitoneal) in B6D2F1 (BDF1) mice
applied conditions: endpoint: median survival time; dose: 25.0 mg/kg/injection; schedule: Q04DX003 (ip); vehicle: other; higher = longer survival
Inconclusive results and toxic doses are left out. Non-standard residues stand in square brackets, D forms with d. Residues, ends and D or L forms follow the SMILES beside them. ξ: configuration not given here. *: point of attachment. Nphe = O=C(O)CNCc1ccccc1; ξL = CC(C)CC(N)C(=O)O; Ms = CS(=O)(=O)*
The reader will find reported T/C values listed item by item below.
value type: T/C

> print(dat)
                                   compound  value.type            result
1  CO[C@@H]([CH2][Hg][S]C#N)[C@@H]([CH2][Hg][S]C#N)OC         T/C  100 % of control
2  CC(=O)C(C(C)=O)c1ccccc1.CC(=O)C(C(C)=O)c1ccccc1.[Ni]         T/C  100 % of control
3          CN(N=O)P(=O)(Nc1ccccc1)Nc1ccccc1         T/C  100 % of control
4  CC(C)CC(NC(=O)CN(Cc1ccccc1)S(C)(=O)=O)C(=O)O (centres undefined) (Ms-[Nphe]-[ξL]-OH)         T/C  113 % of control

----------
Tested on: BDF1 mice, P388 leukemia ip, median survival T/C
protocol text: NCI In Vivo Anticancer Drug Screen. Data for tumor model P388 Leukemia (intraperitoneal) in B6D2F1 (BDF1) mice
applied conditions: endpoint: median survival time; dose: 400.0 mg/kg/injection; schedule: Q04DX003 (ip); vehicle: water; higher = longer survival
Description: The antitumor activity of compounds was measured in mice bearing transplantable tumors. Survival or tumor size were measured and the results are expressed as the measurement made in the treated group (T) divided by the measurement made in the vehicle treated control group (C). The tumor model used in this assay is P388 Leukemia (intraperitoneal) in B6D2F1 (BDF1) mice
Inconclusive results and toxic doses are left out.
value type: T/C

> print(dat)
                                   compound            result
1           CC(=O)Nc1ccc2[nH]c(C)cc(=O)c2c1  113 % of control
2  CCCCNC(C)C1(O)Cc2c(O)c3c(c(O)c2C(OC2CC(N)C(O)C(C)O2)C1)C(=O)c1c(OC)cccc1C3=O (stereo unspecified)  118 % of control
3  OC1OC(COC(c2ccccc2)(c2ccccc2)c2ccccc2)C(O)C(O)C1O (stereo unspecified)  110 % of control
4  COc1cc(/C=C/C(=O)c2ccc3c(c2)OCO3)ccc1OCc1ccccc1   89 % of control
5       CCOC(=O)C(I)CC (stereo unspecified)  104 % of control
6                         OCCSc1ncc2cnccn12  109 % of control
